Exercise: for every item that follows, state its recorded melting point.

Task item: Give the measured melting point of COc1ccc(-c2nnc(-c3c[nH]c4ccccc34)o2)cc1 [Compound 4h] .
Reply: 210 to 212 °C

Task item: Give the measured melting point of Cc1ccc(-c2nnc(-c3c[nH]c4ccccc34)o2)cc1 [Compound 4k] .
Reply: 198 to 200 °C

Task item: Give the measured melting point of FC(F)(F)c1ccc(-c2nnc(-c3c[nH]c4ccccc34)o2)cc1 [Compound 4j] .
Reply: 224 to 226 °C

Task item: Give the measured melting point of c1ccc(OCc2nnc(-c3c[nH]c4ccccc34)o2)cc1 [Compound 4d] .
Reply: 195 to 197 °C

Task item: Give the measured melting point of Cc1ccc(OCc2nnc(-c3c[nH]c4ccccc34)o2)cc1 [Compound 4b] .
Reply: 201 to 203 °C

Task item: Give the measured melting point of COc1cc(-c2nnc(-c3c[nH]c4ccccc34)o2)cc(OC)c1OC [Compound 4i] .
Reply: 221 to 222 °C

Task item: Give the measured melting point of CC(C)(C)c1ccc(OCc2nnc(-c3c[nH]c4ccccc34)o2)cc1 [Compound 4c] .
Reply: 218 to 220 °C

Task item: Give the measured melting point of COc1cccc(Cc2nnc(-c3c[nH]c4ccccc34)o2)c1 [Compound 4e] .
Reply: 208 to 210 °C

Task item: Give the measured melting point of Fc1ccc(OCc2nnc(-c3c[nH]c4ccccc34)o2)cc1 [Compound 4a] .
Reply: 210 to 212 °C

Task item: Give the measured melting point of c1ccc2c(-c3nnc(-c4ccc(N5CCCCC5)nc4)o3)c[nH]c2c1 [Compound 4l] .
Reply: 240 to 242 °C

Task item: Give the measured melting point of c1ccc(Cc2nnc(-c3c[nH]c4ccccc34)o2)cc1 [Compound 4f] .
Reply: 187 to 189 °C

Task item: Give the measured melting point of O=[N+]([O-])c1ccc(-c2nnc(-c3c[nH]c4ccccc34)o2)cc1 [Compound 4g] .
Reply: 215 to 217 °C
